# ASSAYED_SYSTEM: Tau40 P301L protein (human)
# PROTOCOL_SUMMARY: cell-based or functional assay
Square brackets hold non-standard residues; d marks the D form. Ends that are not written are not given here.
In plain terms, low IC50, Tau40 assay (ThT), meaning strictly below 1 µM, gives Satisfied, and everything else gives Not satisfied.

| BINDER | GROUP_LABEL |
| --- | --- |
| [dY][dW][dR][dL][dK][dV][dR][dW] [ywrlkvrw (PEPTIDE ID NO: 268)] | Not satisfied |
| [dH][dR][dL][dK][dV][dR][dW][dW] [hrlkvrww (PEPTIDE ID NO: 265)] | Not satisfied |

Problem: Please indicate whether the reported IC50, Tau40 assay (ThT) of [dW][dR][dL][dK][dT][dR][dW] [wrlktrw (PEPTIDE ID NO: 255)] is strictly below 1 µM.
Result: Not satisfied

Problem: Please indicate whether the reported IC50, Tau40 assay (ThT) of [dW][dR][dL][dK][dV][dR][dW][dF] [wrlkvrwf (PEPTIDE ID NO: 218)] is strictly below 1 µM.
Result: Satisfied

Problem: Please indicate whether the reported IC50, Tau40 assay (ThT) of [dW][dQ][dL][dK][dV][dQ][dW] [wqlkvqw (PEPTIDE ID NO: 319)] is strictly below 1 µM.
Result: Not satisfied

Problem: Please indicate whether the reported IC50, Tau40 assay (ThT) of [dW][dW][dR][dL][dK][dV][dR][dW] [wwrlkvrw (PEPTIDE ID NO: 234)] is strictly below 1 µM.
Result: Satisfied
